# SYSTEM: EGFR extracellular domain (Homo sapiens, UniProt P00533)
# ASSAY: Affinity test by surface plasmon resonance (Biacore T200, CM5 chip)
# Type: binding
# MEASUREMENT_CONDITIONS: EGFR extracellular domain coupled on CM5 chip, analyte 4-256 nM
Items are presented alongside their recorded Ka.

>  <MOLECULE>
rLZ-8 (D20H): rLZ-8 mutant after surface potential optimization, D20H (protein) MSDTALIFRLAWDVKKLSFHYTPNWGRGNPNNFIDTVTFPKVLTDKAYTYRVAVSGRNLGVKPSYAVESDGSQKVNFLEYNSGYGIADTNTIQVFVVDPDTNNDFIIAQWN

>  <VALUE_UNIT>
M⁻¹ s⁻¹

>  <Ka>
58700

$$$$
>  <MOLECULE>
rLZ-8 (S18A): alanine mutant of rLZ-8 at S18 (protein) MSDTALIFRLAWDVKKLAFDYTPNWGRGNPNNFIDTVTFPKVLTDKAYTYRVAVSGRNLGVKPSYAVESDGSQKVNFLEYNSGYGIADTNTIQVFVVDPDTNNDFIIAQWN

>  <VALUE_UNIT>
M⁻¹ s⁻¹

>  <Ka>
3720

$$$$
